Sourced from paper PMC5540273

Measured %Inh, listed per entry.
tested on: RET; details: concentration: 1 μM, replicates: in singlicate; n = 1;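 note: KINOMEscan kinase panel screen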
API: value field is a number in %; no unit string.

// lookup %Inh for "Cn1ccc2ncnc(Nc3ccc(Oc4cccc(Cl)c4)c(Cl)c3)c21"
10

Continue with CC(=O)Nc1n[nH]c2ncc(-c3ccccc3)cc12 [SB-548492]
0

How about this compound: CCCc1ccc(S(=O)(=O)NC2CCN(c3ccnc(Nc4ccc(OC)cc4)n3)C2)cc1 (stereo not shown) [GSK1379737]
28

Moving on to the next compound: COc1cc2c(Nc3cccc(NC(=O)c4ccccc4)c3)ncnc2cc1OCCCN1CCOCC1 [GSK223810]
90.8
